Tested on: HCT 116
Experiment: MTT cell viability assay, HCT 116
Type: cell-based
Conditions: Homo sapiens, HCT-116, 72 h, MTT, 72 h; mean of at least three independent experiments; read-out: IC50 HCT 116
reported metric: IC50 (µM)
// return numeric value only (unit: µM, not printed)

As a guide, the following entries are already answered.
C=C=C1CN2[C@H]3C[C@H]1[C@H](C=O)[C@@H]2Cc1c3n(S(=O)(=O)c2ccc(C)cc2)c2ccc(Cl)cc12 [Compound 15ai] | 4.78
CC=C1CN2C3CC1C(C=O)C2Cc1c3n(C)c2ccccc12 (stereo not drawn) | 23.6

Note: attention shifts to another entry.
Note IC50 for the compound shown: CC=C1CN2C3CC1C(C=O)C2Cc1c3[nH]c2ccccc12 (stereo not drawn)
27.5

----------
System: HCT 116
Experiment: MTT cell viability assay, HCT 116
Assay type: cell-based
Settings: Homo sapiens, HCT-116, 72 h, MTT, 72 h; mean of at least three independent experiments; read-out: IC50 HCT 116
IC50 values for the compounds below.

As a guide, the following entries are already answered.
C=C=C1CN2[C@H]3C[C@H]1[C@H](C=O)[C@@H]2Cc1c3n(S(=O)(=O)c2ccc(C)cc2)c2cc(F)ccc12 [Compound 15aj] | 18.9 µM
C=C=C1CN2[C@H]3C[C@H]1[C@H](C=O)[C@@H]2Cc1c3n(S(=O)(=O)c2ccc(C)cc2)c2ccc(Br)cc12 [Compound 15af] | 9.98 µM

Note: attention shifts to another entry.
Note IC50 for the compound shown: C=C=C1CN2[C@H]3C[C@H]1[C@H](C=O)[C@@H]2Cc1c3n(S(=O)(=O)c2ccc(C)cc2)c2cc(Br)ccc12 [Compound 15ag]
12.4 µM

----------
Tested on: CT26
Assay: MTT cell viability assay, CT26
Format: cell-based
Conditions: MTT, 72 h; mean of at least three independent experiments; read-out: IC50 CT26
reported metric: pIC50
Hey, just a heads up that pIC50 is the negative log base 10 of the concentration in molar.

As a guide, the following entries are already answered.
C=C=C1CN2[C@H]3C[C@H]1[C@H](C=O)[C@@H]2Cc1c3n(S(=O)(=O)c2ccc(C)cc2)c2cccc(Br)c12 [Compound 15ae] | 4.52
CC=C1CN2C3CC1C(C=O)C2Cc1c3n(S(=O)(=O)c2ccc(C)cc2)c2ccccc12 (stereo not shown) [Compound 15ar] | 5.03
C=C=C1CN2[C@H]3C[C@H]1[C@H](C(=O)C=C)[C@@H]2Cc1c3n(S(=O)(=O)c2ccc(C)cc2)c2ccccc12 [Compound 15aq] | 4.80

Note: attention shifts to another entry.
Note pIC50 for the compound shown: C=C=C1CN2[C@H]3C[C@H]1[C@H](C=O)[C@@H]2Cc1c3n(S(=O)(=O)c2ccc(C)cc2)c2ccccc12 [Compound 15ad]
5.09

----------
Tested on: cancer cell lines
Assay: In vitro cancer cell assays (antiproliferation, cell line not given)
Assay type: cell-based
Conditions: cell line not given
reported metric: IC50

Note IC50 for the molecule shown: C=C=C1CN2[C@H]3C[C@H]1[C@H](C=O)[C@@H]2Cc1c3n(S(=O)(=O)c2ccc(C(F)(F)F)cc2)c2ccccc12 [Compound 15am]
> 50 µM

----------
Tested on: A549
Assay: MTT cell viability assay, A549
Assay type: cell-based
Details: Homo sapiens, A549, 72 h, MTT, 72 h; mean of at least three independent experiments; read-out: IC50 A549
reported metric: IC50 (µM)
// return numeric value only (unit: µM, not printed)

Note IC50 for the compound shown: C=C=C1CN2[C@H]3C[C@H]1[C@H](C=O)[C@@H]2Cc1c3n(S(=O)(=O)c2ccc(C)cc2)c2ccc(Cl)cc12 [Compound 15ai]
13

Note IC50 for the compound shown: C=C=C1CN2[C@H]3C[C@H]1[C@H](C=O)[C@@H]2Cc1c3n(S(=O)(=O)c2ccc(C)cc2)c2cc(Br)ccc12 [Compound 15ag]
18.2

Note IC50 for the compound shown: C=C=C1CN2[C@H]3C[C@H]1[C@H](C=O)[C@@H]2Cc1c3n(S(=O)(=O)c2ccc(C)cc2)c2ccc(Br)cc12 [Compound 15af]
14.8

Note IC50 for the compound shown: CC=C1CN2C3CC1C(C=O)C2Cc1c3n(C)c2ccccc12 (stereo not drawn)
20.9

Note IC50 for the compound shown: C=C=C1CN2[C@H]3C[C@H]1[C@H](C=O)[C@@H]2Cc1c3n(S(=O)(=O)c2ccc(C)cc2)c2cc(F)ccc12 [Compound 15aj]
26.2

Note IC50 for the compound shown: CC=C1CN2C3CC1C(C=O)C2Cc1c3[nH]c2ccccc12 (stereo not drawn)
23.2

----------
Test system: CT26
Experiment: MTT cell viability assay, CT26
Assay type: cell-based
Details: Mus musculus, CT26, 72 h, MTT, 72 h; mean of at least three independent experiments; read-out: IC50 CT26
reported metric: pIC50
Hey, just a heads up that pIC50 is the negative log base 10 of the concentration in molar.

As a guide, the following entries are already answered.
CC=C1CN2C3CC1C(C=O)C2Cc1c3[nH]c2ccccc12 (stereo not drawn) | 4.69
C=C=C1CN2[C@H]3C[C@H]1[C@H](C=O)[C@@H]2Cc1c3n(S(=O)(=O)c2ccc(C)cc2)c2ccc(Br)cc12 [Compound 15af] | 4.80
C=C=C1CN2[C@H]3C[C@H]1[C@H](C=O)[C@@H]2Cc1c3n(S(=O)(=O)c2ccc(C)cc2)c2ccc(Cl)cc12 [Compound 15ai] | 5.22
C=C=C1CN2[C@H]3C[C@H]1[C@H](C=O)[C@@H]2Cc1c3n(S(=O)(=O)c2ccc(C)cc2)c2cc(Br)ccc12 [Compound 15ag] | 4.76
C=C=C1CN2[C@H]3C[C@H]1[C@H](C=O)[C@@H]2Cc1c3n(S(=O)(=O)c2ccc(C)cc2)c2cc(F)ccc12 [Compound 15aj] | 4.61

Note: attention shifts to another entry.
Note pIC50 for the compound shown: CC=C1CN2C3CC1C(C=O)C2Cc1c3n(C)c2ccccc12 (stereo not drawn)
4.67

----------
IC50 values for the compounds below.
Tested on: MCF-7
Test: MTT cell viability assay, MCF-7
Type: cell-based
Details: Homo sapiens, MCF7, source data sheet, single values of three experiments; read-out: MTT IC50 MCF-7
// return numeric value only (unit: µM, not printed)

As a guide, the following entries are already answered.
C=C=C1CN2[C@H]3C[C@H]1[C@H](C=O)[C@@H]2Cc1c3n(S(=O)(=O)c2ccc(C)cc2)c2cc(Br)ccc12 [Compound 15ag] | 22.6
C=C=C1CN2[C@H]3C[C@H]1[C@H](C=O)[C@@H]2Cc1c3n(S(=O)(=O)c2ccc(C)cc2)c2cc(F)ccc12 [Compound 15aj] | 33.5
CC=C1CN2C3CC1C(C=O)C2Cc1c3[nH]c2ccccc12 (stereo not drawn) | 38.9
CC=C1CN2C3CC1C(C=O)C2Cc1c3n(C)c2ccccc12 (stereo not drawn) | 44.7
C=C=C1CN2[C@H]3C[C@H]1[C@H](C=O)[C@@H]2Cc1c3n(S(=O)(=O)c2ccc(C)cc2)c2ccc(Cl)cc12 [Compound 15ai] | 16

Note: attention shifts to another entry.
Note IC50 for the compound shown: C=C=C1CN2[C@H]3C[C@H]1[C@H](C=O)[C@@H]2Cc1c3n(S(=O)(=O)c2ccc(C)cc2)c2ccc(Br)cc12 [Compound 15af]
15

----------
Tested on: HCT 116
Assay: MTT cell viability assay, HCT 116
Type: cell-based
Conditions: Homo sapiens, HCT-116, source data sheet, single values of three experiments; read-out: MTT IC50 HCT-116
reported metric: pIC50
Hey, just a heads up that pIC50 is the negative log base 10 of the concentration in molar.

C=C=C1CN2[C@H]3C[C@H]1[C@H](C=O)[C@@H]2Cc1c3n(S(=O)(=O)c2ccc(C)cc2)c2ccc(Cl)cc12 [Compound 15ai] | 5.20
C=C=C1CN2[C@H]3C[C@H]1[C@H](C=O)[C@@H]2Cc1c3n(S(=O)(=O)c2ccc(C)cc2)c2cc(Br)ccc12 [Compound 15ag] | 4.85
C=C=C1CN2[C@H]3C[C@H]1[C@H](C=O)[C@@H]2Cc1c3n(S(=O)(=O)c2ccc(C)cc2)c2ccc(Br)cc12 [Compound 15af] | 4.93
CC=C1CN2C3CC1C(C=O)C2Cc1c3[nH]c2ccccc12 (stereo not drawn) | 4.53

Note pIC50 for the compound shown: C=C=C1CN2[C@H]3C[C@H]1[C@H](C=O)[C@@H]2Cc1c3n(S(=O)(=O)c2ccc(C)cc2)c2cc(F)ccc12 [Compound 15aj]
4.70

Note pIC50 for the compound shown: CC=C1CN2C3CC1C(C=O)C2Cc1c3n(C)c2ccccc12 (stereo not drawn)
4.60
